# MIC per entry
- Test system: Nakaseomyces glabratus
- assay-comment: Antifungal activity against Candida glabrata
- Assay type: functional
Reply with a number, then the unit it belongs to.

CCC(C)n1ncn(-c2ccc(N3CCN(c4ccc(OCC5COC(Cn6cncn6)(c6ccc(Cl)cc6Cl)O5)cc4)CC3)cc2)c1=O (centres undefined) [ITRACONAZOLE]: 0.5 µg/mL
Cc1ccccc1[Se]C(Cn1ccnc1)c1ccc(Cl)cc1 (centres undefined): 0.5 µg/mL
Cc1cccc(C)c1[Se]C(Cn1ccnc1)c1ccc(F)cc1 (centres undefined): 0.25 µg/mL

Please turn your attention to the following entry.
Need MIC, item Cc1cccc(C)c1[Se]C(Cn1ccnc1)c1ccc(Cl)cc1 (centres undefined)
0.13 µg/mL

* * *

- assay-comment: Cytotoxicity against mouse L929 cells measured after 72 hrs
- Assay type: toxicity, cell-based
Examples of compounds with documented IC50 at 72 h follow.
Record the value in µM, omitting the unit from your answer.

CC[C@@]1(O)C(=O)OCc2c1cc1n(c2=O)Cc2cc3ccccc3nc2-1: 1.13

Okay, now this compound:
What value of IC50 at 72 h has been reported for the following compound? `CC[C@@]1(OC(=O)OCc2ccc(O/C=C/[Se]c3ccccc3)cc2)C(=O)OCc2c1cc1n(c2=O)Cc2cc3ccccc3nc2-1`
10.2

* * *

- assay-comment: Cytotoxicity against mouse NIH3T3 cells measured after 72 hrs
- Assay type: toxicity, cell-based
measure: IC50 at 72 h (nM)
Numbers only here, please. The scale is nM.

CC[C@@]1(OC(=O)OCc2ccc(O/C=C/[Se]c3ccccc3)cc2)C(=O)OCc2c1cc1n(c2=O)Cc2cc3ccccc3nc2-1: 1180

Next molecule, please.
Consider the molecule `CC[C@@]1(O)C(=O)OCc2c1cc1n(c2=O)Cc2cc3ccccc3nc2-1` and give its measured IC50 at 72 h.
86

* * *

Listing of recorded IC50 by entry.
- Tested on: ES-2
- assay-comment: Antiproliferative activity against human ES2 cells
- Format: functional, cell-based
Give just the number in µM; leave the unit off.

C[Se]C(=O)CCCC[C@@H]1SC[C@@H]2NC(=O)N[C@@H]21: 9.84
N#C[Se]CCOC(=O)CCCC[C@@H]1SC[C@@H]2NC(=O)N[C@@H]21: 9.85
O=c1[nH]cc(F)c(=O)[nH]1 [FLUOROURACIL]: 25.9
O=C1N[C@H]2[C@H](CS[C@H]2CCCCC(=O)[Se]Cc2ccccc2)N1: 16.2
N#C[Se]CCCOC(=O)CCCC[C@@H]1SC[C@@H]2NC(=O)N[C@@H]21: 91.6

Let's switch to this compound now.
Identify the measured IC50 of `CC[Se]C(=O)CCCC[C@@H]1SC[C@@H]2NC(=O)N[C@@H]21` for ES-2.
14.5

* * *

Below, each entry is listed with its recorded IC50 at 96 h.
- assay-comment: Cytotoxicity against human SGC cells assessed as reduction in cell viability incubated for 96 hrs by MTT assay
- Format: toxicity, cell-based

Observe how each entry below is paired with its result.
c1ccc(-c2nn[se]c2-n2cncn2)cc1: 30.8 µg/mL
COc1cc2c(c(OC)c1OC)-c1ccc(OC)c(=O)cc1[C@@H](NC(C)=O)CC2: 0.045 µg/mL
Clc1ccc(-c2nn[se]c2-n2ccnc2)c(Cl)c1: 14.6 µg/mL

Here's the next entry for you.
IC50 at 96 h lookup needed for `Clc1ccc(-c2nn[se]c2-n2cncn2)c(Cl)c1` , thanks.
19.5 µg/mL
